Each item that follows carries a reported z-score of prototroph abundance.
Tested on: Saccharomyces cerevisiae BY4741 SeMeCo community
Experiment: z-score of prototroph abundance vs DMSO median; higher = larger share of this subpopulation than in DMSO controls
Conditions: 10 µM; 24 h; SM minimal medium; subpopulation (auxotrophy): Prototroph
Counter-ions that a name gives are not always drawn.
Give only the figure.

COMPOUND: O=C(c1ccccc1)c1ccc2n1CCC2C(=O)O (centres undefined)
z-score of prototroph abundance: 0.73

COMPOUND: CN1[C@@H](CC(=O)c2ccccc2)CCC[C@H]1C[C@H](O)c1ccccc1 [Lobeline hydrochloride]
z-score of prototroph abundance: 0.02

COMPOUND: C[C@@H](c1nc(-c2ccc(C#N)cc2)cs1)[C@](O)(Cn1cncn1)c1cc(F)ccc1F
z-score of prototroph abundance: -10.4

Now look at this entry.
What measured z-score of prototroph abundance goes with CN1C[C@@H]2C[C@H]1CN2c1cc2c(cc1F)c(=O)c(C(=O)O)cn2C1CC1 [Danofloxacin Mesylate] ?
0.27

====

Test system: Saccharomyces cerevisiae BY4741 SeMeCo community
Assay: z-score of subpopulation abundance vs DMSO median, subpopulation auxotrophic for M; higher = larger share of this subpopulation than in DMSO controls
Conditions: 10 µM; 24 h; SM minimal medium; subpopulation (auxotrophy): M
Where a name gives a salt, the structure may show the parent alone.
Output T for z-score of subpopulation abundance not less than -0.9; output F otherwise.

Worked examples follow.
COMPOUND: Cc1cc(O)cc(C)c1Cl
CLASSIFICATION: T

COMPOUND: OCCN1CCN(CCCN2c3ccccc3Sc3ccc(C(F)(F)F)cc32)CC1 [Fluphenazine dihydrochloride]
CLASSIFICATION: T

COMPOUND: O=C(O)Cc1ccccc1Nc1c(Cl)cccc1Cl
CLASSIFICATION: T

COMPOUND: COc1ccc(C2CNC(=O)C2)cc1OC1CCCC1 (configuration not stated) [Rolipram]
CLASSIFICATION: T

COMPOUND: CC1=C(C(=O)OC(C)C)C(c2cccc([N+](=O)[O-])c2)C(C(=O)OC2CN(C(c3ccccc3)c3ccccc3)C2)=C(N)N1 (configuration not stated)
CLASSIFICATION: T

Could you please find out whether O=c1[nH]cc(F)c(=O)[nH]1 has z-score of subpopulation abundance that meets -0.9 or exceeds it?
F

Could you please find out whether CC[C@@H]1/C=C(\C)C[C@H](C)C[C@H](OC)[C@H]2O[C@@](O)(C(=O)C(=O)N3CCCC[C@H]3C(=O)O[C@H](/C(C)=C/[C@@H]3CC[C@H](Cl)[C@H](OC)C3)[C@H](C)[C@@H](O)CC1=O)[C@H](C)C[C@@H]2OC has z-score of subpopulation abundance that meets -0.9 or exceeds it?
T

Could you please find out whether CCCCOc1ccc(CC(=O)NO)cc1 has z-score of subpopulation abundance that meets -0.9 or exceeds it?
F

Could you please find out whether CS(=O)(=O)Nc1ccc([N+](=O)[O-])cc1Oc1ccccc1 [Nimesulide] has z-score of subpopulation abundance that meets -0.9 or exceeds it?
T

====

Test system: Saccharomyces cerevisiae BY4741 SeMeCo community
Experiment: z-score of subpopulation abundance vs DMSO median, subpopulation auxotrophic for LU; higher = larger share of this subpopulation than in DMSO controls
Details: 10 µM; 24 h; SM minimal medium; subpopulation (auxotrophy): LU
Counter-ions that a name gives are not always drawn.
Reported z-score of subpopulation abundance maps to class as: low bracket: < -0.3; middle bracket: ≥ -0.3 and < 0.4; high bracket: ≥ 0.4

Worked examples follow.
MOLECULE: O=C(NCCO[N+](=O)[O-])c1cccnc1 [Nicorandil]
CLASSIFICATION: middle bracket
//
MOLECULE: CCCNCC(O)COc1ccccc1C(=O)CCc1ccccc1 (configuration not stated) [Propafenone HCl]
CLASSIFICATION: low bracket
//
MOLECULE: CCOc1ccc2nc3cc(N)ccc3c(N)c2c1 [Ethacridine lactate monohydrate]
CLASSIFICATION: low bracket
//
MOLECULE: C#CCN(C)Cc1ccccc1 [Pargyline hydrochloride]
CLASSIFICATION: high bracket
//
MOLECULE: Cc1c(Nc2ncccc2C(=O)O)cccc1C(F)(F)F [Flunixin Meglumin]
CLASSIFICATION: low bracket

Quick check: band for COc1cccc(CCc2ccccc2OCC(CN(C)C)OC(=O)CCC(=O)O)c1 (configuration not stated) [Sarpogrelate hydrochloride]
middle bracket

Quick check: band for Nc1cc(C(Cl)=C(Cl)Cl)c(S(N)(=O)=O)cc1S(N)(=O)=O [Clorsulon]
high bracket

Quick check: band for C[C@H](NCc1ccc(OCc2cccc(F)c2)cc1)C(N)=O [Safinamide Mesylate]
high bracket

Quick check: band for COC(=O)C1=C(C)NC(C)=C(C(=O)OCCN(C)Cc2ccccc2)C1c1cccc([N+](=O)[O-])c1 (configuration not stated) [Nicardipine HCl]
high bracket

Quick check: band for CN1C(C(=O)Nc2ccccn2)=C(O)c2ccccc2S1(=O)=O [Piroxicam]
low bracket

Quick check: band for CO/N=C(\C(=O)N[C@@H]1C(=O)N2C(C(=O)O)=C(COC(C)=O)CS[C@H]12)c1csc(N)n1 [Cefotaxime sodium]
middle bracket

Quick check: band for Cc1c(-c2ccccc2)oc2c(C(=O)OCCN3CCCCC3)cccc2c1=O [Flavoxate HCl]
high bracket

Quick check: band for NC1CCN(c2nc3c(cc2F)c(=O)c(C(=O)O)cn3-c2ccc(F)cc2F)C1 (configuration not stated) [Tosufloxacin p-Toluenesulfonate Hydrate]
low bracket

Quick check: band for O=c1ccn(C2CC(O)C(CO)O2)c(=O)[nH]1 (configuration not stated) [2-deoxyuridine]
middle bracket

Quick check: band for CC(C)[C@H](N)C(=O)OCC(CO)OCn1cnc2c(=O)[nH]c(N)nc21 (some centres not stated) [Valganciclovir HCl]
low bracket

Quick check: band for CN1CC(=O)N2[C@H](c3ccc4c(c3)OCO4)c3[nH]c4ccccc4c3C[C@@H]2C1=O [Tadalafil]
middle bracket
